- assay procedure: Aqueous solubility at neutral pH
- Assay type: physicochemical
readout label: solubility

So what does the record say about solubility for `C=C(NC(=O)c1csc(-c2nc3c(cc2O)-c2nc(cs2)C(=O)N[C@@H]([C@@H](C)O)C(=O)N/C(=C(\C)OC)c2nc(cs2)C(=O)N[C@@H]2c4nc(cs4)C(=O)N[C@@H](COC(=O)c4c5c6c(cccc6n4OCCCS(=O)(=O)O)COC(=O)[C@@H](O[C@H]4C[C@](C)(O)[C@H](N(C)C)[C@H](C)O4)[C@H]2OC5)c2nc-3cs2)n1)C(N)=O` ?
> 2000 µg/mL

----------
- Test system: Enterococcus faecalis
- assay procedure: In vitro antibacterial activity against Enterococcus faecalis
- Assay type: functional
readout label: MIC (µg/mL)
Give bare numbers, in µg/mL.

Each compound below has a recorded value; state its MIC.
1. C=C(NC(=O)c1csc(-c2nc3c(cc2O)-c2nc(cs2)C(=O)N[C@@H]([C@@H](C)O)C(=O)N/C(=C(\C)OC)c2nc(cs2)C(=O)N[C@@H]2c4nc(cs4)C(=O)N[C@@H](COC(=O)c4c5c6c(cccc6n4OCCC[N+](C)(C)C)COC(=O)[C@@H](O[C@H]4C[C@](C)(O)[C@H](N(C)C)[C@H](C)O4)[C@H]2OC5)c2nc-3cs2)n1)C(N)=O
2. C=C(NC(=O)c1csc(-c2nc3c(cc2OCOP(=O)(O)O)-c2nc(cs2)C(=O)N[C@@H]([C@@H](C)O)C(=O)N/C(=C(\C)OC)c2nc(cs2)C(=O)N[C@@H]2c4nc(cs4)C(=O)N[C@@H](COC(=O)c4c5c6c(cccc6n4OCOP(=O)(O)O)COC(=O)[C@@H](O[C@H]4C[C@](C)(O)[C@H](N(C)C)[C@H](C)O4)[C@H]2OC5)c2nc-3cs2)n1)C(N)=O
3. C=C(NC(=O)c1csc(-c2nc3c(cc2O)-c2nc(cs2)C(=O)N[C@@H]([C@@H](C)O)C(=O)N/C(=C(\C)OC)c2nc(cs2)C(=O)N[C@@H]2c4nc(cs4)C(=O)N[C@@H](COC(=O)c4c5c6c(cccc6n4OCCCN4CCN(C)CC4)COC(=O)[C@@H](O[C@H]4C[C@](C)(O)[C@H](N(C)C)[C@H](C)O4)[C@H]2OC5)c2nc-3cs2)n1)C(N)=O
4. C=C(NC(=O)c1csc(-c2nc3c(cc2O)-c2nc(cs2)C(=O)N[C@@H]([C@@H](C)O)C(=O)N/C(=C(\C)OC)c2nc(cs2)C(=O)N[C@@H]2c4nc(cs4)C(=O)N[C@@H](COC(=O)c4c5c6c(cccc6n4O)COC(=O)[C@@H](O[C@H]4C[C@](C)(O)[C@H](N(C)C)[C@H](C)O4)[C@H]2OC5)c2nc-3cs2)n1)C(N)=O
5. C=C(NC(=O)c1csc(-c2nc3c(cc2OCCCS(=O)(=O)O)-c2nc(cs2)C(=O)N[C@@H]([C@@H](C)O)C(=O)N/C(=C(\C)OC)c2nc(cs2)C(=O)N[C@@H]2c4nc(cs4)C(=O)N[C@@H](COC(=O)c4c5c6c(cccc6n4O)COC(=O)[C@@H](O[C@H]4C[C@](C)(O)[C@H](N(C)C)[C@H](C)O4)[C@H]2OC5)c2nc-3cs2)n1)C(N)=O
6. C=C(NC(=O)c1csc(-c2nc3c(cc2O)-c2nc(cs2)C(=O)N[C@@H]([C@@H](C)O)C(=O)N/C(=C(\C)OC)c2nc(cs2)C(=O)N[C@@H]2c4nc(cs4)C(=O)N[C@@H](COC(=O)c4c5c6c(cccc6n4OCOP(=O)(OC(C)(C)C)OC(C)(C)C)COC(=O)[C@@H](O[C@H]4C[C@](C)(O)[C@H](N(C)C)[C@H](C)O4)[C@H]2OC5)c2nc-3cs2)n1)C(N)=O

[2, 0.25, 1, 0.03, 32, 0.015]
